# ASSAYED SYSTEM: Extracellular calcium-sensing receptor (Homo sapiens, UniProt P41180)
# Sequence (P41180 whole entry): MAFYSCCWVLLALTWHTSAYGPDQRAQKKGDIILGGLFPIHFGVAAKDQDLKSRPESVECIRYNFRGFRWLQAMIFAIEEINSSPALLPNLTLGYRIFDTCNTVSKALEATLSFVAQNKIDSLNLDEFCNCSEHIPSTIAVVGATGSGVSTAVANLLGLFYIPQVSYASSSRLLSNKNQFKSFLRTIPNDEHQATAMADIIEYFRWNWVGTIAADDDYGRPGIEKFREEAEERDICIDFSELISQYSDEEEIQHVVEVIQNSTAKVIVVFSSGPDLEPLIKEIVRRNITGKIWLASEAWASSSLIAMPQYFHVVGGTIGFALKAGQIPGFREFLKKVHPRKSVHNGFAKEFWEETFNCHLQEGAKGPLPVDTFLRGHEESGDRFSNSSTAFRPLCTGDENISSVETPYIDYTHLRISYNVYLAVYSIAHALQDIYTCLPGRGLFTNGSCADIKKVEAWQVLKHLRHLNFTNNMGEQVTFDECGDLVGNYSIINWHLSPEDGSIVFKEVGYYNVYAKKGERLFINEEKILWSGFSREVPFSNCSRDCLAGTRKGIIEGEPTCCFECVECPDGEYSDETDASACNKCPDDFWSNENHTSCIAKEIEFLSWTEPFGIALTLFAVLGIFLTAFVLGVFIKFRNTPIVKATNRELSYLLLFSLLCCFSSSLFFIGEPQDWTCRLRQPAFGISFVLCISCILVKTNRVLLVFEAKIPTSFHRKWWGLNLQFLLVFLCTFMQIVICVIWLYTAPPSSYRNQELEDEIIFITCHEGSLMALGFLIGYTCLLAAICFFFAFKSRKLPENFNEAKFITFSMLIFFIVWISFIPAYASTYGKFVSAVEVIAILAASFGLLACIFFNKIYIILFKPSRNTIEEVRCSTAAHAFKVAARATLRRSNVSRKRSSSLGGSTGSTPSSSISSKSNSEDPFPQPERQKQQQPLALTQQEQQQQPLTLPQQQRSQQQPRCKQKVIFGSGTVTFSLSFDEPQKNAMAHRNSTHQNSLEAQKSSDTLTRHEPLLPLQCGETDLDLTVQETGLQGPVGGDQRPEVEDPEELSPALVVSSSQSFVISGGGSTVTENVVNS
# MEASUREMENT DESCRIPTION: Inhibition of intracellular calcium release in human TT cells containing calcium-sensing receptor by FLIPR
OBSERVATION TYPE: IC50 (nM)

Form field IC50, entry `COc1cccc(CN2CCC[C@@H]2[C@H](O)CNC(C)(C)Cc2ccc3ccccc3c2)c1` : 1190

Form field IC50, entry `CC(C)(Cc1ccc2ccccc2c1)NC[C@@H](O)[C@H]1CCCN1Cc1cccc(O)c1` : 1160

Form field IC50, entry COc1ccc(CC(C)(C)NCC(O)COc2ccc(S(C)(=O)=O)c(C)c2)cc1 (centres undefined) : 11400

Form field IC50, entry `CC(C)(Cc1ccc2ccccc2c1)NC[C@@H](O)[C@H]1CCCN1Cc1cccc(F)c1O` : 140

Form field IC50, entry `CC(C)(Cc1ccc2ccccc2c1)NC[C@@H](O)[C@H]1CCCN1Cc1cccc(C(=O)O)c1` : 6840

1 = CC(C)(Cc1ccc2ccccc2c1)NC[C@@H](O)[C@H]1CCCN1Cc1ccc([N+](=O)[O-])cc1
2 = CC(C)(Cc1ccc2ccccc2c1)NC[C@@H](O)[C@H]1CCCN1Cc1ccccc1[N+](=O)[O-]
3 = CC(C)(Cc1cc2ccccc2[nH]1)NC[C@@H](O)[C@H]1CCCN1Cc1cccc(C#N)c1
**Query** hey, can you rank those molecules up there by IC50? biggest number first please Please write the labels in the order that was asked for.
**Result** 1, 3, 2
(1: 790 nM, 3: 440 nM, 2: 160 nM)
